ASSAY EXPLANATION: Maximum concentration in wistar rat at 1 mL/kg concentration of compound after oral administration
Assay type: ADME, organism-based
Parameters: dose 1 mL/kg, route oral
CONDITIONS: in vivo
MEASUREMENT LABEL: Cmax (nM)
Give just the number in nM; leave the unit off.

Fill blank: measured Cmax of the compound Cc1nccn1-c1sc(Nc2cnccn2)nc1-c1cccc(C#N)c1 is ____.
560

----------
ASSAY EXPLANATION: Volume abserved at study state after intra venous administration of 2:1 PEG200/0.1 M phosphate buffer at 0.1 mL/kg concentration in wistar rat
Type: ADME, organism-based
CONDITIONS: in vivo, iv, read-out: Vss
MEASUREMENT LABEL: Vd (L/kg)
// units = L/kg; emit number, no label

Can you share its Vd? I mean this molecule: Cc1nccn1-c1sc(Nc2cnccn2)nc1-c1cccc(C#N)c1
3.02

----------
STUDY TARGET: Adenosine receptor A1 (Homo sapiens, UniProt P30542)
ASSAY EXPLANATION: Displacement of [3H]DPCPX from human adenosine A1 receptors transfected in CHO cells
Quick list: pKi per entry.
Please treat pKi as minus the base-10 logarithm of the molar concentration.

N#Cc1cccc(-c2nc(Nc3cccnc3)sc2-n2cncn2)c1 5.82

Need pKi, item N#Cc1cccc(-c2nc(Nc3cnccn3)sc2-n2cncn2)c1
5.68

Reported pKi, compound CC(=O)Nc1nc(-c2cccc(C#N)c2)c(-n2cncn2)s1 : ____
5.55

# input compound: Cc1cccc(Nc2nc(-c3cccc(C#N)c3)c(-n3ccnc3C)s2)n1 ; wanted: its pKi
6.65

Could you share which pKi value was measured for N#Cc1cccc(-c2nc(Nc3cnccn3)sc2-n2ccnc2)c1 ?
7.34

Given the entry N#Cc1cccc(-c2nc(Nc3ccccn3)sc2-n2cncn2)c1 , report its measured pKi.
5.75

----------
ASSAY EXPLANATION: Clearance in wistar rat was determined by intra venous administration of 2:1 PEG200/0.1 M phosphate buffer at 0.1 mL/kg concentration
Assay type: ADME, organism-based
CONDITIONS: in vivo, iv
MEASUREMENT LABEL: clearance (mL/min/kg)
Numeric only. Scale: mL/min/kg

// query clearance value for entry Cc1nccn1-c1sc(Nc2cnccn2)nc1-c1cccc(C#N)c1
94.4

----------
Below, each entry is listed with its recorded Ki.
STUDY TARGET: Adenosine receptor A2a (Homo sapiens)
Sequence (P29274 whole entry): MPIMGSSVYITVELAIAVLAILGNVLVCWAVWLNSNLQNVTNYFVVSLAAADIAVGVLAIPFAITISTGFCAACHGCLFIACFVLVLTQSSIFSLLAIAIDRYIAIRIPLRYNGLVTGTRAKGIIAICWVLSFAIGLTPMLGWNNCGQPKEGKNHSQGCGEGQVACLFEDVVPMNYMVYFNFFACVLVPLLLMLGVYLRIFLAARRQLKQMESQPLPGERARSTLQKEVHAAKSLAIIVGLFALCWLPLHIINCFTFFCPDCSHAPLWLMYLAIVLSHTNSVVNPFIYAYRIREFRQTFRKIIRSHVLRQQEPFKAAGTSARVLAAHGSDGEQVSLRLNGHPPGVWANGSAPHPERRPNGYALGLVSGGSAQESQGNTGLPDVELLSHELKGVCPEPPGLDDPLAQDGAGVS
ASSAY EXPLANATION: Displacement of [3H]ZM-241,385 from human adenosine A2a receptors transfected in HEK 293 cells
Return type: number; implicit unit nM.

N#Cc1cccc(-c2nc(Nc3cccnc3)sc2-n2cncn2)c1 2570

Given the entry Cc1cccc(Nc2nc(-c3cccc(C#N)c3)c(-n3ccnc3)s2)n1 , what Ki was observed with Adenosine receptor A2a (Homo sapiens)?
2700

----------
STUDY TARGET: Adenosine receptor A1 (Homo sapiens, UniProt P30542)
Sequence (P30542 whole entry): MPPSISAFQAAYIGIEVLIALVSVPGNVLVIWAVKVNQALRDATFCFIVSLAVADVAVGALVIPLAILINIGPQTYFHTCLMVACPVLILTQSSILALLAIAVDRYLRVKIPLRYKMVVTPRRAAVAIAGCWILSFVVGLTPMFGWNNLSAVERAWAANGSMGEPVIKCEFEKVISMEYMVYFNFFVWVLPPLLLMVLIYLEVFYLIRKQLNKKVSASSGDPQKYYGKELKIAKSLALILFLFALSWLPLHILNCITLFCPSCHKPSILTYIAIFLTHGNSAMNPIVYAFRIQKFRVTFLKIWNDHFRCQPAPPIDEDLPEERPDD
ASSAY EXPLANATION: Displacement of [3H]DPCPX from human adenosine A1 receptors transfected in CHO cells
Assay type: cell-based
MEASUREMENT LABEL: Ki (nM)
Give a bare numeral; the unit nM is implied.

Query: Ki; subject: Cc1nccn1-c1sc(Nc2cnccn2)nc1-c1cccc(C#N)c1
197

What value of Ki has been reported for the following molecule? N#Cc1cccc(-c2nc(Nc3cccnc3)sc2-n2ccnc2)c1
560

Requested field: Ki. Item: Cc1cccc(Nc2nc(-c3cccc(C#N)c3)c(-n3ccnc3)s2)n1
8

Provenance of the data: ChEMBL document CHEMBL1139627
